System: Mus musculus
assay.name: Compound was tested for percentage survival of immunocompromized CF-1 mice infected […] albicans strain C-65 colony forming units at dose 50 mg/Kg
Assay type: functional
condition.parameters: inhaled or nasal
property.name: survival at 50 mg/kg (%)
Hi! Could you send only the number? It should be in %, unit omitted.

These recorded examples may help you get a feel for the data.
CCC(C)n1ncn(-c2ccc(N3CCN(c4ccc(OC[C@H]5CO[C@](Cn6cncn6)(c6cc(F)cc(F)c6)O5)cc4)CC3)cc2)c1=O (some centres undefined): 0
CCC(C)n1ncn(-c2ccc(N3CCN(c4ccc(OC[C@@H]5CO[C@@](Cn6cncn6)(c6ccc(F)cc6F)C5)cc4)CC3)cc2)c1=O (single isomer, unassigned): 40
CCC(CC)n1ncn(-c2ccc(N3CCN(c4ccc(OC[C@@H]5CO[C@@](Cn6cncn6)(c6ccc(F)cc6F)C5)cc4)CC3)cc2)c1=O: 50

Let us examine a further case.
Field request: survival at 50 mg/kg | item: CCC(C)n1ncn(-c2ccc(N3CCN(c4ccc(OC[C@H]5CO[C@](Cn6cncn6)(c6ccc(Cl)cc6Cl)O5)cc4)CC3)cc2)c1=O (some centres undefined)
20

These entries and their values trace back to ChEMBL document CHEMBL1128898.
